Where do these numbers come from? They come from patent WO2025083273A1.

# ASSAYED SYSTEM: T1, DR3-8i (human)
# T1 construct: also called purified monomeric DR3-8i antigen protein
# T1 chain: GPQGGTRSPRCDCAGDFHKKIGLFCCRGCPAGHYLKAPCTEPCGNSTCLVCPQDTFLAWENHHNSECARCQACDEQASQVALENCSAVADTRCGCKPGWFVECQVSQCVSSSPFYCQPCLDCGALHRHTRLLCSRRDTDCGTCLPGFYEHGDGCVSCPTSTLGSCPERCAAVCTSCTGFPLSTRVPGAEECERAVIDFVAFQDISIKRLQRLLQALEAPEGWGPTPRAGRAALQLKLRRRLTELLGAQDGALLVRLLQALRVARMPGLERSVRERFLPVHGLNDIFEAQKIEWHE
# ASSAY PROTOCOL: BLI, IgG captured on protein A, DR3-8i in solution; Experiment 2
ENDPOINT LABEL: pKd
# pKd = -log10(concentration in molar units)

Below, each entry is followed by its recorded pKd result.
query: Assign pKd to the following record: VHg3/VLg12 (antibody, human IgG1, V domains shown, human IgG1) VH: EVQLVQSGGGLVKPGGSLRLSCAASGFKFSSYAMSWVRQAPGKGLEWLSTISDGDSYSYFPDSVKDRFIISRDNAKNSLYLQMNSLRVEDTGVYYCARDRIYGSVQYYAMDYWGQGTLVTVSS VL: EIVLTQSPATLSLSPGERATLSCRASESVEFSGTSLMQWYQQKPGQAPRLLIYAASNVESGIPARFSGSGSGTDFTLTISSLEPEDFAVYYCQQSRKLPYTFGQGTKLEIK
result: 9.39

query: Fill in pKd for record VHg3/VLg13 (antibody, human IgG1, V domains shown, human IgG1) VH: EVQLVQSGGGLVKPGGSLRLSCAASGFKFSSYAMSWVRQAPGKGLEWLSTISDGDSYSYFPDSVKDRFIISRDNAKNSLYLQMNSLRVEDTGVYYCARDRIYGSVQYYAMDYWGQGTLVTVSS VL: DIQMTQSPSSLSASVGDRVTITCRASESVEFSGTSLMQWYQQKPGKAPKLLIYAASNVESGVPSRFSGSGSGTDFTFTISSLQPEDIATYYCQQSRKLPYTFGQGTKLEIK
result: 9.41

query: Please look at this binder and report its pKd: VHg6/VLg2 (antibody, human IgG1, V domains shown, human IgG1) VH: QVQLQQSGGGLVQPGGSLRLSCAASGFTFSSYAMSWVRQAPGKGLEWVATISDGDSYSYFPDSVKDRFTISRDNARNSLYLQMNSLRAEDTAVYYCARDRIYGSVQYYAMDYWGRGTLVTVSS VL: DIQLTQSPSSLSASVGDRVTITCRASESVEFSGTSLMQWYQQKAGLAPKLLIYAASNVESGVPSRFSGSGSGTDFTLTISSLQPEDFGTYYCQQSRKLPYTFGQGTRLEIK
result: 9.80

query: Note down pKd recorded for VHg3/VLg11 (antibody, human IgG1, V domains shown, human IgG1) VH: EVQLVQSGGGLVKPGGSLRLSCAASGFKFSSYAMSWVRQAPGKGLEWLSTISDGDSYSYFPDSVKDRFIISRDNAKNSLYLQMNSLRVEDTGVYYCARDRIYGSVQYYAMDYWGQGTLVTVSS VL: DIVMTQSPDSLAVSLGERATINCRASESVEFSGTSLMQWYQQKPGQPPKLLIYAASNVESGVPDRFSGSGSGTDFTLTISSLQAEDVAVYYCQQSRKLPYTFGQGTKLEIK
result: 9.21

query: Retrieve pKd measured for VHg2/VLg12 (antibody, human IgG1, V domains shown, human IgG1) VH: QMQLVQSGGGLVKPGGSLRLSCAASGFTFSSYAMSWIRQAPGKGLEWVSTISDGDSYSYFPDSVKDRFTISRDNAKNSLYLQMNSLRAEDTAVYYCTRDRIYGSVQYYAMDYWGRGTLVTVSS VL: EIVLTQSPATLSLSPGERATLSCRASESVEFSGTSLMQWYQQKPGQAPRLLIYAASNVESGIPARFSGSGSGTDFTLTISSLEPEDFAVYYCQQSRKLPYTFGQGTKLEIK and print it.
result: 9.75

Now for a further binder.
query: Identify the reported pKd for the following entry. VHg10/VLg4 (antibody, human IgG1, V domains shown, human IgG1) VH: EVQLVESGGGLVQPGGSLRLSCAASGFTFSSYAMSWVRQAPGKGLEWVSTISDGDSYSYFPDSVKDRFTISRDNSKNTLYLQMNSLRAEDTAVYYCARDRIYGSVQYYAMDYWGQGTLVTVSS VL: DVVMTQSPDSLAVSLGERATISCRASESVEFSGTSLMQWYQQKPRQPLKLLIYAASNVESGVPDRFSGSGSGTDFTLTISSLQAEDVAVYYCQQSRKLPYTFGQGTRLEIK
result: 9.78
